Test system: SNB-19 CNS
protocol text: NCI-60 one-dose screen, 48 h
test parameters: 10 µM unless noted
About 83,000 compounds went through this panel and 20% of them were active in at least one assay; those are over-represented in the sample as a whole. The source made the active and inactive calls. Rule for the calls: active = growth percent below 10; inactive = the rest.
Your answer must be one of the following: TRUE = active, FALSE = inactive

Consider the worked cases shown below.
[
  {
    "compound": "CC1OC2CC(=O)OC2C2=C1C(=O)c1c(O)cccc1C2=O (stereo unspecified)",
    "label value": "FALSE"
  },
  {
    "compound": "NC(=S)N/N=C/c1ccc(Cl)s1",
    "label value": "FALSE"
  },
  {
    "compound": "O=C1N[C@H]2[C@H](CS[C@H]2CCCCC(=O)N(CCP(c2ccccc2)c2ccccc2)CCP(c2ccccc2)c2ccccc2)N1",
    "label value": "FALSE"
  },
  {
    "compound": "NC(N)=N/N=C/c1ccc([N+](=O)[O-])o1",
    "label value": "FALSE"
  },
  {
    "compound": "CCC(=O)Sc1ccccc1C(=O)Nc1ccc(Cl)cc1",
    "label value": "FALSE"
  }
]

Pending compound:
I would be grateful if you could indicate the recorded call for CC(=Nc1ccc(N(C)C)cc1)c1ccccc1 .
FALSE
